Entries annotated with measured TGI
test system: NCI/ADR-RES ovarian; experiment: NCI tumour cell line growth inhibition, 48 h
Endpoint Label: TGI

| Compound | Result |
| --- | --- |
| COC(=O)C1=C(O)[C@H](C(=O)OC)C2(O)C(C(=O)OC)[C@H](c3ccc(OC(=O)C(C)c4ccccc4)cc3)C[C@@H]1[C@@H]2C(=O)OC (stereo partly specified) | > 50 µM |
| CC(CC(N)C(=O)O)C(=O)O (stereo unspecified) | > 100 µM |
| CCCCC(CCCCCC(CCCC)NCc1ccc2c(c1)OCO2)NCc1ccc2c(c1)OCO2 (stereo unspecified) | 1.93 µM |
| CN(CCCCCl)P(=O)(OCCS(=O)(=O)CC(NC(=O)CCC(N)C(=O)O)C(=O)NC(C(=O)O)c1ccccc1)OCC1OC(n2ccc(N)nc2=O)C(O)C1O (stereo unspecified) | > 75 µM |
| COC(=O)C1CCC(=S)N1C(=O)OCc1ccccc1 (stereo unspecified) | > 100 µM |
| COC1CCON1C(=O)c1ccccc1 (stereo unspecified) | > 10 µM |
| CCOC(=O)C(NC(=O)c1ccccc1)(Nc1ccc(S(=O)(=O)Nc2ncccn2)cc1)C(F)(F)F (stereo unspecified) | > 100 µM |
| Cc1ccc(Nc2nccc(N(C)c3ccc4c(C)n(C)nc4c3)n2)cc1S(N)(=O)=O | > 100 µM |
| COc1ccc(/C(C)=N/NC(=O)c2ccncc2)c(OC)c1 | > 10 µM |
| COc1ccc(/C=C/C(=O)/C=C/c2ccc(OC)cc2OC)c(OC)c1 | 91.4 µM |
| CC1CN=C(NS(=O)(=O)c2cc(C(=O)Nc3ccc(Cl)cc3)c(Cl)cc2S)NN1 (stereo unspecified) | > 100 µM |
| COc1ccc([N+](=O)[O-])c2c(NCCCN(C)C)ccnc12 | 42.2 µM |
| CCCc1n(Cc2ccc3ccccc3c2)cc[n+]1Cc1ccc2ccccc2c1 | 44.3 µM |
| CSCS(=O)C[C@H](CO)NC(=O)/C=C/c1c(C)[nH]c(=O)[nH]c1=O (stereo partly specified) | 6.07 µM |
| C=CC(O)(CBr)CCC(Br)C(=C)C (stereo unspecified) | > 10 µM |
| CCCCCCCCCCCC(=O)OC[C@H](C[As](=O)(O)O)OC(=O)CCCCCCCCCCC | 29.3 µM |
| COC(=O)C1CCN(C(=O)OC(C)(C)C)CC1 | > 100 µM |
| O=c1c2ccccc2[nH]n1Cc1ccccc1 | > 100 µM |
| Nc1ccc2[nH]c(-c3cccc(C(F)(F)F)c3)cc(=O)c2c1 | > 100 µM |
| COc1nc2cccc(C(O)c3ccccc3)c2nc1-c1ccccc1 (stereo unspecified) | 15.9 µM |
| Cc1cc(S(=O)(=O)N2CCNNC2=O)c(S)cc1Cl | > 100 µM |

====

system: SN12C renal; experiment: NCI tumour cell line growth inhibition, 48 h
Entries annotated with measured TGI
Endpoint Label: TGI

| Molecule | Tested System | Endpoint Label | Result |
| --- | --- | --- | --- |
| COc1cc2c(c(OC)c1OC)-c1ccc(O)cc1[C@@H](NC(C)=O)CC2 | SN12C renal | TGI | > 100 µM |
| Oc1ccc([C@H]2c3c(O)cc(O)cc3C3c4c(cc(O)cc4[C@@H]2[C@H]2c4cc(O)cc5c4C(c4cc(O)cc(O)c4[C@@H]2c2ccc(O)cc2)[C@@H](c2ccc(O)cc2)O5)O[C@@H]3c2ccc(O)cc2)cc1 (stereo not given in full) | SN12C renal | TGI | > 100 µM |
| C1CSCCSCCCSC2CCCCC2SC1 (stereo not given) | SN12C renal | TGI | > 100 µM |
| Cc1nc2c(c(N3CCCc4ccccc43)n1)CCC2 | SN12C renal | TGI | > 100 µM |
| CN(C)c1ccc(/C=C/c2ccc(S(N)(=O)=O)cc2)cc1 | SN12C renal | TGI | 51.1 µM |
| N#CC12CCC1C1CCCCC12N1CCSCC1 (stereo not given) | SN12C renal | TGI | > 100 µM |
| CCOC(=O)/C=C(\C(=O)OCC)n1ccc(=O)n(Cc2cnnn2CCCCOC(C)=O)c1=O | SN12C renal | TGI | 45.3 µM |
| COc1cc(-c2nc3ccc(N4CCN(C)CC4)cc3[nH]2)c(OC)c2[nH]c(COC(C)=O)nc12 | SN12C renal | TGI | > 100 µM |
| NS(=O)(=O)c1nnc(NC(=O)C23CC4CC(CC(C4)C2)C3)s1 | SN12C renal | TGI | > 100 µM |
| CO[C@@H]1C=C[C@@]23c4cc5c(cc4CN(C[C@@H]2O)[C@H]3C1)OCO5 | SN12C renal | TGI | 87.9 µM |

====

Entries annotated with measured TGI
system: BT-549 breast; test: NCI tumour cell line growth inhibition, 48 h

| Molecule | TGI |
| --- | --- |
| COC(=O)N1CC(=O)C(C(=O)NC23CC4CC(CC(C4)C2)C3)C1 (centres undefined) | > 100 µM |
| Cc1ccc2oc(=O)cc(/C(=C3/C=CC=N3)c3ccc[nH]3)c2c1 | 1.58 µM |
| CCOC(=O)CC(c1ccccc1)C(C)(C(=O)OCC)C(=O)OCC (centres undefined) | > 100 µM |
| CN(C)c1ccc(/C=C/c2ccc(S(N)(=O)=O)cc2)cc1 | 8.62 µM |
| O=c1[nH]c2ccccc2c2nc3ccccc3n12 | > 100 µM |
| COc1ccc([N+](=O)[O-])c2c(NCCCN(C)C)ccnc12 | 6.45 µM |
| O=[N+]([O-])C(/C=C(\Cl)[N+](=O)[O-])=C1Nc2ccccc2N1 | > 100 µM |
| COc1ccc(C=Nc2c(C(=O)Nc3cccc(Cl)c3C)sc3nc(C)c(C(=O)/C=C/c4ccc(OC)cc4)cc23)cc1 | > 38.5 µM |
| CCCCN1CCCC[C@@H]1C(=O)N[C@H](C(=O)N(C)[C@H](C[C@@H](OC(C)=O)c1nc(C(=O)NC2CCC(C(=O)OC)CC2)cs1)C(C)C)C(C)C (some centres undefined) | > 25 µM |
| COc1nc2cccc(C(O)c3ccccc3)c2nc1-c1ccccc1 (centres undefined) | 46.3 µM |
| COc1ccc(OC)c(NCC(=O)Nn2cnc3ccc(S(=O)(=O)Nc4cc(OC)ccc4OC)cc3c2=O)c1 | > 100 µM |
| CC1=CC(C)=NN=C(N)N1S(=O)(=O)c1cc(C)c(Cl)cc1SCc1ccccc1 | > 100 µM |
| CCOC(=O)C(NC(=O)c1ccccc1)(Nc1ccc(S(=O)(=O)Nc2ncccn2)cc1)C(F)(F)F (centres undefined) | > 100 µM |
| O=C1CSC(=S)N1c1ccco1 | 50.4 µM |
| CC(=O)OC1CCC2(C)C(CCC3C2CC(=O)C2(C)C3CC(N3CC3)C2C(C)=O)C1 (centres undefined) | 40.1 µM |
| CCCCCCCCCCCC(=O)OC[C@H](C[As](=O)(O)O)OC(=O)CCCCCCCCCCC | 11.3 µM |
| O=C(Nc1ccc(Cc2ccccc2)cc1)Nc1nn(C(=O)Nc2ccc(Cc3ccccc3)cc2)c2ccccc12 | > 100 µM |
| COC(=O)c1ccc2c(c1)C(=O)c1c-2n(CCCCl)c(=O)c2cc([N+](=O)[O-])ccc12 | > 100 µM |
| C[C@@]1(C(=O)O)CCC[C@]2(C)C1CC[C@@]13C[C@@](O)(CC[C@]12O)[C@@]1(CO1)C3 (some centres undefined) | > 100 µM |

====

system: SNB-75 CNS; assay: NCI tumour cell line growth inhibition, 48 h
Entries annotated with measured TGI
Endpoint Label: TGI

| Molecule | Endpoint Label | Result |
| --- | --- | --- |
| CCOC(=O)C(NC(=O)c1ccccc1)(Nc1ccc(S(=O)(=O)Nc2ncccn2)cc1)C(F)(F)F (stereo not given) | TGI | > 100 µM |
| CCCc1n(Cc2ccc3ccccc3c2)cc[n+]1Cc1ccc2ccccc2c1 | TGI | 3.04 µM |
| CCOC(=O)C(=O)Nc1nc2c(OCC)cccc2s1 | TGI | > 100 µM |
| CSC1(C)C(=O)Nc2c(OCc3ccccc3)cc([N+](=O)[O-])cc21 (stereo not given) | TGI | 35.7 µM |
| COc1cc(C)c(/C=C2/N=C(c3ccccc3)OC2=O)c([N+](=O)[O-])c1OC | TGI | > 100 µM |
| CC(=O)OC(CC1(C)C(C)CCC23COC(=O)C2=CCCC31)c1ccoc1 (stereo not given) | TGI | 78.5 µM |
| COc1cc2c(c(OC)c1OC)C(=O)[C@@H]1[C@H]2N1C(=O)NCCCl | TGI | > 100 µM |
| CCOC(=O)C1SC(=Nc2ccc(OC)c(OC)c2)N=C1C (stereo not given) | TGI | 71.1 µM |
| COC(=O)C1=C(O)[C@H](C(=O)OC)C2(O)C(C(=O)OC)[C@H](c3ccc(OC(=O)C(C)c4ccccc4)cc3)C[C@@H]1[C@@H]2C(=O)OC (stereo not given in full) | TGI | > 50 µM |
| O=C(Nc1ccc(Cc2ccccc2)cc1)Nc1nn(C(=O)Nc2ccc(Cc3ccccc3)cc2)c2ccccc12 | TGI | > 100 µM |
| Clc1cc2nn(C3CCCCO3)nc2cc1Cl (stereo not given) | TGI | > 100 µM |
| O=c1c2ccccc2[nH]n1Cc1ccccc1 | TGI | > 100 µM |
| COc1cc(Oc2c(C)c(Cl)c(OC)c(Cl)c2OC)c2c(c1Cl)COC2=O | TGI | > 100 µM |
| N.N.N.N.N.NC(=O)[O-].[Co+3].[I-] | TGI | > 100 µM |
| CC1=C2CC(C)(C)/C=C\C(=O)/C(C)=C\C3=C[C@H](C)C[C@]3(O2)C1=O | TGI | 12.2 µM |
| CCOC(=O)NN(C(=O)OCC)C(C(=O)C1=CCCCC1)N(NC(=O)OCC)C(=O)OCC | TGI | > 100 µM |
| O=C1C=CC2OC(c3ccccc3)C(O)C2O1 (stereo not given) | TGI | 31 µM |
| Nc1c(C(=O)Nc2ccccc2)sc2nc3c(cc12)CCCCC3 | TGI | 2.91 µM |
| CCCCCCCCCCCCCCCCCc1nccn1CCOCCO | TGI | 9.7 µg/mL |
| COc1ccc(OC)c(NCC(=O)Nn2cnc3ccc(S(=O)(=O)Nc4cc(OC)ccc4OC)cc3c2=O)c1 | TGI | > 100 µM |
